# Tested on: Fibroblast
# Experiment summary: Multiplex assay against human fibroblast
# Type: toxicity, cell-based
# Conditions used: 24 h, 1 µM, compound concentration 1 uM, replicate 1
Property name: Population Apoptotic (%)

Example compounds with recorded Population Apoptotic (%):
# Population Apoptotic (%) of `Cc1ccc(/C(=C\CN2CCCC2)c2ccccn2)cc1` = 43%

`CCCC(CCC)C(=O)O` yielded Population Apoptotic (%) of 42%

Next:
// `CC[C@H]1OC(=O)[C@H](C)[C@@H](O[C@H]2C[C@@](C)(OC)[C@@H](O)[C@H](C)O2)[C@H](C)[C@@H](O[C@@H]2O[C@H](C)C[C@H](N(C)C)[C@H]2O)[C@@]2(C)CC(C)=C(O2)[C@H](C)[C@@H](O)[C@]1(C)O` : Population Apoptotic (%) value = 52%

Sample CSc1ccccc1N1CCN(CCCCCC(=O)NC2CCCc3ccccc32)CC1.Cl (configuration not stated) ; Population Apoptotic (%) observed: 52%

Sample `N#Cc1c(N)nc(SCc2csc(-c3ccc(Cl)cc3)n2)c(C#N)c1-c1ccc(OCCO)cc1` ; Population Apoptotic (%) observed: 72%

Documented Population Apoptotic (%) of `C[C@H]1[C@H]2CC[C@H]3[C@@H]4CC=C5C[C@@H](N(C)C)CC[C@]5(C)[C@H]4CC[C@]23CN1C` : 43%

# compound `CCOc1c2c(c(OCC)c3ncccc13)CN(c1ccc(CS(=O)(=O)NC(=O)Cc3ccccc3OC)cc1C)C2=O` ; its Population Apoptotic (%) = 56%

Per the record, `COc1cc(NC(=O)CCN2CCC(OC(=O)Nc3ccccc3-c3ccccc3)CC2)c(Cl)cc1CNC[C@H](O)c1ccc(O)c2[nH]c(=O)ccc12` has Population Apoptotic (%) of 55%

compound `CCCn1c(=O)c2[nH]c(C3CCCC3)nc2n(CCC)c1=O` , Population Apoptotic (%) observed: 50%

The compound `Cc1nc2ccc(Oc3ccc(F)cc3)cc2c(=O)n1C[C@H]1CCCN(C(C)C)C1.Cl` showed Population Apoptotic (%) equal to 66%

Form field Population Apoptotic (%), entry CNC[C@H](O)c1ccc(O)c(O)c1 [EPINEPHRINE] : 54%

Measured Population Apoptotic (%), `C[C@H](NC(=O)c1c(C(F)F)nn(C)c1Oc1cccc(C(F)(F)F)c1)c1ccc(C(=O)O)cc1` : 40%

Just so you know, measured Population Apoptotic (%) for `CC(=O)NCCc1c(Cc2ccccc2)[nH]c2ccccc12` came out at 54%

Quick note, Population Apoptotic (%) for `O=C1COc2nccc(-c3ccccc3F)c2CN1Cc1cc(C(F)(F)F)cc(C(F)(F)F)c1` landed at 53%

Entry O=S(=O)(c1ccccc1)c1cnc2c(N3CCNCC3)cccc2c1 [INTEPIRDINE] , Population Apoptotic (%) reported as 54%

So, COc1ccc2c(c1)C(C(=O)N(Cc1ccc(N(C)C)cc1)c1ccc(C(C)C)cc1)CCC2.Cl (configuration not stated) ? Its Population Apoptotic (%) was 55%

Notebook: `c1cc(OCCCN2CCCCC2)ccc1CN1CCCCC1` , Population Apoptotic (%) read as 38%

---

# System: HEK-293T
# Experiment summary: Multiplex assay against HEK293T
# Assay type: toxicity, cell-based
# Conditions used: human, 12 h, 1 µM, compound concentration 1 uM, replicate 1
# Population Membrane Permeable-Phenotype (%) per entry
Kindly provide the numeric value in % only, without the unit symbol.

Sample answers from the record:
Data point: `COc1c(C)cc(NC(=O)c2nn(Cc3ccc(F)cc3)c3c2CN(C(=O)c2ccc[nH]2)C[C@]3(C)C(N)=O)cc1C` ; Population Membrane Permeable-Phenotype (%) = 0

# Population Membrane Permeable-Phenotype (%) of `CC[C@H]1OC(=O)[C@H](C)[C@@H](O[C@H]2C[C@@](C)(OC)[C@@H](O)[C@H](C)O2)[C@H](C)[C@@H](O[C@@H]2O[C@H](C)C[C@H](N(C)C)[C@H]2O)[C@@]2(C)CC(C)=C(O2)[C@H](C)[C@@H](O)[C@]1(C)O` = 0

For O=S(=O)(c1ccccc1)c1cnc2c(N3CCNCC3)cccc2c1 [INTEPIRDINE] the compound record lists Population Membrane Permeable-Phenotype (%) as 0

Now look at this entry.
Input Cc1ccc(C(C)(O)c2nc3ccccc3s2)c(C)c1 (centres undefined) . Output Population Membrane Permeable-Phenotype (%): 1

---

// reported Population Mitotic Cells (%) for each item listed
# System: U2OS
# Experiment summary: Multiplex assay against U2OS
# Type: toxicity, cell-based
# Conditions used: human, 48 h, 10 µM, compound concentration 10 uM, replicate 1
Give a bare numeral; the unit % is implied.

# count of solved cases: 3
For CNC[C@H](O)c1ccc(O)c(O)c1 [EPINEPHRINE] the compound record lists Population Mitotic Cells (%) as 7

The reported value for CCCN1CCC[C@@H]2Cc3n[nH]cc3C[C@H]21.Cl [QUINPIROLE HYDROCHLORIDE] in terms of Population Mitotic Cells (%) is 13

Record `Oc1c(CN2CCN(c3ccccn3)CC2)cc(Cl)c2cccnc12` . Reported Population Mitotic Cells (%): 3

***
Briefly, Population Mitotic Cells (%) measured for C[C@@H]1C[C@H]2[C@@H]3CCC4=CC(=O)C=C[C@]4(C)[C@@]3(F)[C@@H](O)C[C@]2(C)[C@@]1(O)C(=O)CO [DEXAMETHASONE] : 7

So, N#Cc1c(N)nc(SCc2csc(-c3ccc(Cl)cc3)n2)c(C#N)c1-c1ccc(OCCO)cc1 [CAPADENOSON] ? Its Population Mitotic Cells (%) was 13

Query `CN(C)CCCc1cc(C(=O)Nc2ccc(-c3ccncc3)cc2)ccc1O.Cl.Cl` yields Population Mitotic Cells (%) of 25

Entry under test: Cc1ccccc1C(=O)Nc1ccc(C(=O)N2CCCC(N(C)C)c3ccccc32)cc1.Cl (stereo not drawn) . Its Population Mitotic Cells (%) was 28

Summary for this compound, COc1cc(NC(=O)CCN2CCC(OC(=O)Nc3ccccc3-c3ccccc3)CC2)c(Cl)cc1CNC[C@H](O)c1ccc(O)c2[nH]c(=O)ccc12 [BATEFENTEROL] : Population Mitotic Cells (%) is 7

---

# Tested on: U2OS
# Experiment summary: Multiplex assay against U2OS
# Assay type: toxicity, cell-based
# Conditions used: human, 48 h, 10 µM, compound concentration 10 uM, replicate 2
Criterion: Population Mitotic Cells (%) strictly under 7%. Met: Y. Not met: N.

Use these answered entries as a reference point.
Problem: # TODO verify Population Mitotic Cells (%) < 7% strictly for this compound: `CN(C)CCCc1cc(C(=O)Nc2ccc(-c3ccncc3)cc2)ccc1O.Cl.Cl`
Result: N

Problem: Does this compound meet the criterion Population Mitotic Cells (%) < 7%? `CCOc1c2c(c(OCC)c3ncccc13)CN(c1ccc(CS(=O)(=O)NC(=O)Cc3ccccc3OC)cc1C)C2=O`
Result: Y

Problem: Hello, I'm reviewing records and need to know if Population Mitotic Cells (%) of `COc1c(C)cc(NC(=O)c2nn(Cc3ccc(F)cc3)c3c2CN(C(=O)c2ccc[nH]2)C[C@]3(C)C(N)=O)cc1C` is below 7%. Could you check?
Result: N

Problem: For the compound O=S(=O)(c1ccccc1)c1cnc2c(N3CCNCC3)cccc2c1 [INTEPIRDINE] , is Population Mitotic Cells (%) under 7%?
Result: Y

Problem: Please check: Population Mitotic Cells (%) for Cc1ccccc1C(=O)Nc1ccc(C(=O)N2CCCC(N(C)C)c3ccccc32)cc1.Cl (stereo not given) , strictly under 7% or not?
Result: N

Problem: Here's an entry: C[C@H]1[C@H]2CC[C@H]3[C@@H]4CC=C5C[C@@H](N(C)C)CC[C@]5(C)[C@H]4CC[C@]23CN1C [CONESSINE] . Is its Population Mitotic Cells (%) below 7%?
Result: N

Problem: For this compound, is Population Mitotic Cells (%) lower than 7%? `CN(C)c1ccnc2sc3c(=O)n(N4CCCCCC4)cnc3c12`
Result: N

Problem: Quick check: Population Mitotic Cells (%) of O=C(O)Cc1ccccc1Nc1c(Cl)cccc1Cl [DICLOFENAC] under 7%?
Result: Y

Problem: # check: Population Mitotic Cells (%) < 7% for COc1cc(NC(=O)CCN2CCC(OC(=O)Nc3ccccc3-c3ccccc3)CC2)c(Cl)cc1CNC[C@H](O)c1ccc(O)c2[nH]c(=O)ccc12 [BATEFENTEROL]
Result: Y

Problem: Is Population Mitotic Cells (%) of `O=C(NCCO)c1cccc(-c2cc(Nc3ccc(OC(F)(F)F)cc3)ncn2)c1` strictly below 7%?
Result: N

Further cases:
Problem: Is Population Mitotic Cells (%) strictly under 7% for the entry CCCN1CCC[C@@H]2Cc3n[nH]cc3C[C@H]21.Cl [QUINPIROLE HYDROCHLORIDE] ?
Result: N

Problem: Strictly below 7%: is that where Population Mitotic Cells (%) of CC(C)(C)c1ccc(S(=O)(=O)Nc2ccc(Cl)cc2C(=O)c2cc[n+]([O-])cc2)cc1 [VERCIRNON] sits?
Result: N

Data origin: ChEMBL document CHEMBL5058577
